Reference for the values: patent US12370143B2

# experiment.summary: Encapsulation rate of siRNA in nucleic acid lipid particles (Luc2-siRNA)
# Assay type: physicochemical
# condition: compound/DSPC/cholesterol/DMG-PEG2000 50/10/38.5/1.5
Recorded Nucleic acid encapsulation rate values for a group of compounds are listed next.
State just the number; it will be interpreted in %.

Entry under test: CCCCC/C=C\C/C=C\CCCCCCCCC(CCCCCCCC/C=C\C/C=C\CCCCC)OC(=O)OCCN(CCO)CCN(C)C [Example 28] . Its Nucleic acid encapsulation rate was 75

Entry under test: CCCCCCCCC(CCCCCC)COC(=O)CCCCCCC(CCCCCC)OC(=O)OCCN(CCN(CC)CC)C(C)C (stereo not drawn) [Example 94] . Its Nucleic acid encapsulation rate was 76

* * *

# experiment.summary: Encapsulation rate of siRNA in nucleic acid lipid particles (Luc2-siRNA)
# Assay type: physicochemical
# condition: compound/DSPC/cholesterol/DMG-PEG2000 50/10/38.5/1.5
readout.label: Nucleic acid encapsulation rate (%)
State just the number; it will be interpreted in %.

Entry under test: CCCCCCCCC(CCCCCC)COC(=O)CCCCCCCCC(CCCCC)OC(=O)OCCN(CCN(CC)CC)C(C)C (stereo not shown) . Its Nucleic acid encapsulation rate was 71

Entry under test: CCCCCCCC(=O)OCCN(CCOC(=O)OC(CCCCCC)CCCCCCCCC(=O)OCC(CCCC)CCCCCC)CCN(CC)CC (stereo not shown) . Its Nucleic acid encapsulation rate was 81

Entry under test: CCCCCCCCC(CCCCCC)COC(=O)CCCCCCCC(CCCCCC)OC(=O)OCCN(CCN(CC)CC)C(C)C (stereo not shown) . Its Nucleic acid encapsulation rate was 90

Entry under test: CCCCCCCCCCC(CCCCCCCC)COC(=O)CCCC(CCCCCC)OC(=O)OCCN(CCN(CC)CC)C(C)C (stereo not shown) . Its Nucleic acid encapsulation rate was 79

* * *

# experiment.summary: Particle size of nucleic acid lipid particles (Luc2-siRNA)
# Type: physicochemical
# condition: compound/DSPC/cholesterol/DMG-PEG2000 50/10/38.5/1.5
readout.label: Particle size (nm)
State just the number; it will be interpreted in nm.

These recorded examples may help you get a feel for the data.
INSERT INTO results (compound, display_unit, numeric_readout) VALUES
  ('CCCCCCCOC(=O)CCN(CCOC(=O)OC(CCCCCC)CCCCCCCCC(=O)OCC(CCCC)CCCCCC)CCN(CC)CC (stereo not shown) [Example 122]', 'nm', 69.5),
  ('CCCCC/C=C\C/C=C\CCCCCCCCN(CCCCCCCC/C=C\C/C=C\CCCCC)C(=O)OCCNCCN [Example 9]', 'nm', 79.5),
  ('CCCCC/C=C\C/C=C\CCCCCCCCC(CCCCCCCC/C=C\C/C=C\CCCCC)OC(=O)OCCN(CCCCCCCC)CCN(C)C [Example 52]', 'nm', 79.9),
  ('CCCCCCC(CCCC)COC(=O)CCCCCCCCC(CCCCCCCCC(=O)OCC(CCCC)CCCCCC)OC(=O)OCCN(CC)CCN(CC)CC (stereo not shown) [Example 72]', 'nm', 74.2),
  ('CCCCCCCCC(CCCCCC)COC(=O)CCCCCCCCC(CCCCCC)OC(=O)OCCN(CCOC(=O)CCCCCCC)CCN(CC)CC (stereo not shown) [Example 99]', 'nm', 68.9),
  ('CCCCCCCCC(CCCCCC)COC(=O)CCCCCCC(CCCCCC)OC(=O)OCCN(CCN(CC)CC)C(C)C (stereo not shown) [Example 94]', 'nm', 72.7);

Please turn your attention to the following entry.
Entry under test: CCCCC/C=C\C/C=C\CCCCCCCCC(CCCCCCCC/C=C\C/C=C\CCCCC)OC(=O)OCCN(C)CCN [Example 26] . Its Particle size (nm) was 209.8

* * *

# experiment.summary: Particle size of nucleic acid lipid particles (Luc2-siRNA)
# Assay type: physicochemical
# condition: compound/DSPC/cholesterol/DMG-PEG2000 50/10/38.5/1.5
Recorded Particle size (nm) values for a group of compounds are listed next.
State just the number; it will be interpreted in nm.

These recorded examples may help you get a feel for the data.
INSERT INTO measurements (compound, readout_label, numeric_readout) VALUES
  ('CCCCC/C=C\C/C=C\CCCCCCCCC(CCCCCCCC/C=C\C/C=C\CCCCC)OC(=O)OCCN(CCN(CC)CC)C(C)C', 'Particle size (nm)', 70),
  ('CCCCC/C=C\C/C=C\CCCCCCCC(=O)OCCCCCCC(CCCCCCOC(=O)CCCCCCC/C=C\C/C=C\CCCCC)OC(=O)OCCN(CC)CCN(CC)CC', 'Particle size (nm)', 71.7);

Entry under test: CCCCCCCCC1CC1CCCCCCCC(=O)OCCCCCCC(CCCCCCOC(=O)CCCCCCCC1CC1CCCCCCCC)OC(=O)OCCN(CC)CCN(CC)CC (stereo not shown) . Its Particle size (nm) was 77.9

Entry under test: CCCCCCCCC(CCCCCC)COC(=O)CCCCCCCCC(CCCCCC)OC(=O)OCCN(CCN(CC)CC)C(C)C (stereo not shown) . Its Particle size (nm) was 68.2

Entry under test: `CCCCC/C=C\C/C=C\CCCCCCCCC(CCCCCCCC/C=C\C/C=C\CCCCC)OC(=O)OCCN(CCC)CCN(C)C` . Its Particle size (nm) was 67.9

Entry under test: CCCCCCCC(=O)OCCN(CCOC(=O)OC(CCCCCC)CCCCCCCCC(=O)OCC(CCCCC)CCCCC)CCN(CC)CC (stereo not shown) . Its Particle size (nm) was 70.2

* * *

# experiment.summary: Particle size of nucleic acid lipid particles (Luc2-siRNA)
# Assay type: physicochemical
# condition: compound/DSPC/cholesterol/DMG-PEG2000 50/10/38.5/1.5
# Method: By using the dispersion liquid of lipid particles as it was, the particle size of the lipid particles was measured using a zeta potential/particle size measurement system ELS-Z2 (Otsuka Electronics Co., Ltd.). […] The particle size of the nucleic acid lipid particles was measured by the same method as that in <Preparation of lipid particles>.
Recorded Particle size (nm) values for a group of molecules are listed next.
State just the number; it will be interpreted in nm.

INSERT INTO assay_data (molecule, numeric_readout) VALUES
  ('CCCCCCCCCC(=O)OCCCCCCC(CCCCCCOC(=O)CC(CCCCCCC)CCCCCCC)OC(=O)OCCN(CC)CCN(CC)CC (stereo not drawn) [Example 78]', 71.7),
  ('CCCCCCCC(=O)OCCN(CCOC(=O)OC(CCCCCC)CCCC(=O)OCC(CCCC)CCCCCC)CCN(CC)CC (stereo not drawn) [Example 108]', 78.7),
  ('CCCCCCC(CCCCCC)C(=O)OCCCCCCC(CCCCCCOC(=O)C(CCCCCC)CCCCCC)OC(=O)OCCN(CC)CCN(CC)CC [Example 77]', 81.9);

Entry under test: CCCCC/C=C\C/C=C\CCCCCCCCN(CCCCCCCC/C=C\C/C=C\CCCCC)C(=O)CN(C)CCN(C)C [Comparative Example 6, reference compound] . Its Particle size (nm) was 81.9

Entry under test: CCCCC/C=C\C/C=C\CCCCCCCCC(CCCCCCCC/C=C\C/C=C\CCCCC)OC(=O)OCCN(CC)CCN(CC)CC [Example 30] . Its Particle size (nm) was 69.8

Entry under test: CCCCCCCCCC(=O)OCCN(CCOC(=O)OC(CCCCCC)CCCCCCCCC(=O)OCC(CCCC)CCCCCC)CCN(CC)CC (stereo not drawn) [Example 87] . Its Particle size (nm) was 69.2

* * *

Recorded Relative amount of FVII protein (%) values for a group of compounds are listed next.
# Test system: Factor VII (FVII) protein
# experiment.summary: Measurement of Factor VII (FVII) protein in mouse plasma after FVII-siRNA lipid particles
# Type: in vivo, C57BL6/J mice
# condition: 0.1 mg/kg caudal vein, plasma 24 hours after administration, PBS group = 100%
State just the number; it will be interpreted in %.

Entry under test: `CCCCC/C=C\C/C=C\CCCCCCCCC(CCCCCCCC/C=C\C/C=C\CCCCC)OC(=O)OCCN(CCCCCCCC)CCN(C)C` . Its Relative amount of FVII protein (%) was 19

Entry under test: CCCCCCCCC(CCCCCC)COC(=O)CCCCCCCCC(CCCCCC)OC(=O)OCCN(CCN(CC)CC)C(C)C (stereo not shown) . Its Relative amount of FVII protein (%) was 8

Entry under test: CCCCCCCCCC(=O)OCCN(CCOC(=O)OC(CCCCCC)CCCC(=O)OCC(CCCCCC)CCCCCCCC)CCN(CC)CC (stereo not shown) . Its Relative amount of FVII protein (%) was 2

Entry under test: CCCCCCCOC(=O)CCN(CCOC(=O)OC(CCCCCC)CCCCCCCCC(=O)OCC(CCCC)CCCCCC)CCN(CC)CC (stereo not shown) . Its Relative amount of FVII protein (%) was 3

Entry under test: CCCCCCCC(=O)OCCN(CCOC(=O)OC(CCCCCC)CCCC(=O)OCC(CCCC)CCCCCC)CCN(CC)CC (stereo not shown) . Its Relative amount of FVII protein (%) was 3

Entry under test: CCCCCCCCC(CCCCCC)COC(=O)CCCCCCCCC(CCCCCC)OC(=O)OCCN(CCOC(=O)CCCCCCC)CCN(CC)CC (stereo not shown) . Its Relative amount of FVII protein (%) was 3

Entry under test: CCCCCCCC/C=C\CCCCCCCC(=O)OCCN(CCOC(=O)OC(CCCCCC)CCCCCCCCC(=O)OCC(CCCCCC)CCCCCCCC)CCN(CC)CC (stereo not shown) . Its Relative amount of FVII protein (%) was 9
